Reported values of pKi for individual entries
target desc: UniProtKB Q07820
pKi here: minus log base 10 of the concentration, concentration in moles per litre.

Take a look at these entries with their results.
| compound | experimental endpoint | experimental value |
| --- | --- | --- |
| Cc1c(C(=O)O)n2c3ccc(Cl)c(c13)-c1c(nn(C)c1C)C(CC(C)O)OCc1cc(n(C)n1)CCc1cc(c3ccc(F)cc3c1)OCCC2 (single isomer, unassigned) [Compound 19] | pKi | 10.24 |
| Cc1c(C(=O)O)n2c3ccc(Cl)c(c13)-c1c(nn(C)c1C)C(CCN1CCN(C)CC1)OCc1cc(n(C)n1)CCc1cc(c3ccc(F)cc3c1)OCCC2 (single isomer, unassigned) [Compound 8] | pKi | 10.89 |
| CNCCC1OCc2cc(n(C)n2)CCc2cc(c3ccc(F)cc3c2)OCCCn2c(C(=O)O)c(C)c3c(c(Cl)ccc32)-c2c1nn(C)c2C (stereo not shown) [Compound 26] | pKi | 8.44 |

Ask: For the compound Cc1c(C(=O)O)n2c3ccc(Cl)c(c13)-c1c(nn(C)c1C)C(C)OCc1cc(n(C)n1)CCc1cc(c3ccc(F)cc3c1)OCCC2 (single isomer, unassigned) [Compound 18] , report pKi.
Result: 11.00

Ask: For the compound COCC1OCc2cc(n(C)n2)CCc2cc(c3ccc(F)cc3c2)OCCCn2c(C(=O)O)c(C)c3c(c(Cl)ccc32)-c2c1nn(C)c2C (single isomer, unassigned) [Compound 16] , report pKi.
Result: 9.98

Ask: For the compound Cc1c(C(=O)O)n2c3ccc(Cl)c(c13)-c1c(nn(C)c1C)C(CCCO)OCc1cc(n(C)n1)CCc1cc(c3ccc(F)cc3c1)OCCC2 (single isomer, unassigned) [Compound 10] , report pKi.
Result: 10.55

Ask: For the compound COCC1OCc2cc(n(C)n2)CCc2cc(c3ccc(F)cc3c2)OCCCn2c(C(=O)O)c(C)c3c(c(Cl)ccc32)-c2c1nn(C)c2C (single isomer, unassigned) [Compound 15] , report pKi.
Result: 10.32

Ask: For the compound COCCOCC1OCc2cc(n(C)n2)CCc2cc(c3ccc(F)cc3c2)OCCCn2c(C(=O)O)c(C)c3c(c(Cl)ccc32)-c2c1nn(C)c2C (single isomer, unassigned) [Compound 14] , report pKi.
Result: 10.74

Ask: For the compound Cc1c(C(=O)O)n2c3ccc(Cl)c(c13)-c1c(nn(C)c1C)C(C)OCc1cc(n(C)n1)CCc1cc(c3ccc(F)cc3c1)OCCC2 (single isomer, unassigned) [Compound 17] , report pKi.
Result: 10.38

Ask: For the compound Cc1c(C(=O)O)n2c3ccc(Cl)c(c13)-c1c(nn(C)c1C)C(CCN1CCOCC1)OCc1cc(n(C)n1)CCc1cc(c3ccc(F)cc3c1)OCCC2 (single isomer, unassigned) [Compound 7] , report pKi.
Result: 10.96

###

Tested on: MOLP-8 human multiple myeloma cell line
test details: MOLP8 Caspase-Glo 3/7 apoptosis induction assay
Assay type: cell-based
measurement conditions: MOLP-8 cells, 2 hours incubation at 37° C.; averaged values over all runs on all batches
Reported values of AC50 for individual entries
The response must be a number in nM with no trailing unit.

| compound | AC50 / nM |
| --- | --- |
| C=CC1OCc2cc(n(C)n2)CCc2cc(c3ccc(F)cc3c2)OCCCn2c(C(=O)O)c(C)c3c(c(Cl)ccc32)-c2c1nn(C)c2C (single isomer, unassigned) [Compound 1] | 101 |
| COc1ccc(COC2CCc3cc(n(C)n3)CCc3cc(c4ccc(F)cc4c3)OCCCn3c(C(=O)O)c(C)c4c(c(Cl)ccc43)-c3c2nn(C)c3C)cc1 (single isomer, unassigned) [Compound 22] | 1000 |
| Cc1c(C(=O)O)n2c3ccc(Cl)c(c13)-c1c(nn(C)c1C)C(CCCO)OCc1cc(n(C)n1)CCc1cc(c3ccc(F)cc3c1)OCCC2 (single isomer, unassigned) [Compound 10] | 1060 |

Ask: For the compound COCCOCCn1nc(C)c2c1C(C)OCc1cc(n(C)n1)CCc1cc(c3ccc(F)cc3c1)OCCCn1c(C(=O)O)c(C)c3c-2c(Cl)ccc31 (centres unmarked) , report AC50.
Result: 318

Ask: For the compound COCCCC1OCc2cc(n(C)n2)CCc2cc(c3ccc(F)cc3c2)OCCCn2c(C(=O)O)c(C)c3c(c(Cl)ccc32)-c2c1nn(C)c2C (single isomer, unassigned) [Compound 12] , report AC50.
Result: 57.8

###

Tested on: MOLP-8 human multiple myeloma cell line
test details: MOLP8 Caspase-Glo 3/7 apoptosis induction assay
Assay type: cell-based
measurement conditions: Homo sapiens, MOLP-8, 2 h, MOLP-8 cells, 2 hours incubation at 37° C.; averaged values over all runs on all batches
experimental endpoint: AC50 (nM)
The response must be a number in nM with no trailing unit.

Take a look at these entries with their results.
| molecule | target desc | unit of measurement | AC50 |
| --- | --- | --- | --- |
| COCCOCC1OCc2cc(n(C)n2)CCc2cc(c3ccc(F)cc3c2)OCCCn2c(C(=O)O)c(C)c3c(c(Cl)ccc32)-c2c1nn(C)c2C (single isomer, unassigned) | MOLP-8 human multiple myeloma cell line | nM | 205 |
| COCCn1nc2cc1CCc1cc(c3ccc(F)cc3c1)OCCCn1c(C(=O)O)c(C)c3c(c(Cl)ccc31)-c1c(C)nn3c1C(CC2)OCC3 (centres unmarked) | MOLP-8 human multiple myeloma cell line | nM | 48.6 |
| Cc1c(C(=O)O)n2c3ccc(Cl)c(c13)-c1c(nn(C)c1C)C(CCN1CCN(C)CC1)OCc1cc(n(C)n1)CCc1cc(c3ccc(F)cc3c1)OCCC2 (single isomer, unassigned) | MOLP-8 human multiple myeloma cell line | nM | 1160 |

Moving on to the next molecule.
Ask: For the molecule Cc1c(C(=O)O)n2c3ccc(Cl)c(c13)-c1c(nn(C)c1C)C(CCO)OCc1cc(n(C)n1)CCc1cc(c3ccc(F)cc3c1)OCCC2 (centres unmarked) , report AC50.
Result: 52.7

###

target desc: Myeloid Cell Leukemia 1 (Mcl-1) (Homo sapiens (Human), UniProt Q07820)
Sequence (Q07820 whole entry): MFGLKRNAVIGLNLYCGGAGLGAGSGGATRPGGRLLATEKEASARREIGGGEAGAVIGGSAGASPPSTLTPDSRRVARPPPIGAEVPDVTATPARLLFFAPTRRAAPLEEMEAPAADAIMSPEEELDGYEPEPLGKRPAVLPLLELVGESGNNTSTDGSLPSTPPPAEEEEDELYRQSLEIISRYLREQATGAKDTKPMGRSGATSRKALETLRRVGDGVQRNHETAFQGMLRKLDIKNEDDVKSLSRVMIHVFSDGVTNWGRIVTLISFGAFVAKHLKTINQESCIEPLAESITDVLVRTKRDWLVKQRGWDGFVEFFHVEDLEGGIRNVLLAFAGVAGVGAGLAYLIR
experimental endpoint: pKi
pKi here: minus log base 10 of the concentration, concentration in moles per litre.

Take a look at these entries with their results.
| molecule | target desc | experimental endpoint | experimental value |
| --- | --- | --- | --- |
| Cc1c(C(=O)O)n2c3ccc(Cl)c(c13)-c1c(nn(C)c1C)C(CC(C)O)OCc1cc(n(C)n1)CCc1cc(c3ccc(F)cc3c1)OCCC2 (single isomer, unassigned) [Compound 20] | Myeloid Cell Leukemia 1 (Mcl-1) (Homo sapiens (Human), UniProt Q07820) | pKi | 10.64 |
| COCCC1OCc2cc(n(C)n2)CCc2cc(c3ccc(F)cc3c2)OCCCn2c(C(=O)O)c(C)c3c(c(Cl)ccc32)-c2c1nn(C)c2C (single isomer, unassigned) [Compound 4] | Myeloid Cell Leukemia 1 (Mcl-1) (Homo sapiens (Human), UniProt Q07820) | pKi | 11.05 |
| COCCn1nc2cc1CCc1cc(c3ccc(F)cc3c1)OCCCn1c(C(=O)O)c(C)c3c(c(Cl)ccc31)-c1c(C)nn3c1C(CC2)OCC3 (centres unmarked) | Myeloid Cell Leukemia 1 (Mcl-1) (Homo sapiens (Human), UniProt Q07820) | pKi | 9.39 |
| Cc1c(C(=O)O)n2c3ccc(Cl)c(c13)-c1c(nn(C)c1C)C(CCO)OCc1cc(n(C)n1)CCc1cc(c3ccc(F)cc3c1)OCCC2 (centres unmarked) | Myeloid Cell Leukemia 1 (Mcl-1) (Homo sapiens (Human), UniProt Q07820) | pKi | 11.05 |

Moving on to the next molecule.
Ask: Look up and report measured pKi (Myeloid Cell Leukemia 1 (Mcl-1) (Homo sapiens (Human), UniProt Q07820)) for the following molecule: CCOCCC1OCc2cc(n(C)n2)CCc2cc(c3ccc(F)cc3c2)OCCCn2c(C(=O)O)c(C)c3c(c(Cl)ccc32)-c2c1nn(C)c2C (single isomer, unassigned)
Result: 11.05

###

Tested on: MOLP-8 human multiple myeloma cell line
test details: MOLP8 Caspase-Glo 3/7 apoptosis induction assay
Type: cell-based
measurement conditions: Homo sapiens, MOLP-8, 2 h, MOLP-8 cells, 2 hours incubation at 37° C.; averaged values over all runs on all batches
Reported values of AC50 for individual entries
The response must be a number in nM with no trailing unit.

Take a look at these entries with their results.
| compound | unit of measurement | AC50 |
| --- | --- | --- |
| CCOCCC1OCc2cc(n(C)n2)CCc2cc(c3ccc(F)cc3c2)OCCCn2c(C(=O)O)c(C)c3c(c(Cl)ccc32)-c2c1nn(C)c2C (single isomer, unassigned) | nM | 43.6 |
| Cc1c(C(=O)O)n2c3ccc(Cl)c(c13)-c1c(nn(C)c1C)C(CC(C)O)OCc1cc(n(C)n1)CCc1cc(c3ccc(F)cc3c1)OCCC2 (single isomer, unassigned) | nM | 1210 |
| Cc1c(C(=O)O)n2c3ccc(Cl)c(c13)-c1c(nn(C)c1C)C(CCN1CCOCC1)OCc1cc(n(C)n1)CCc1cc(c3ccc(F)cc3c1)OCCC2 (single isomer, unassigned) | nM | 149 |
| COCCOCCC1OCc2cc(n(C)n2)CCc2cc(c3ccc(F)cc3c2)OCCCn2c(C(=O)O)c(C)c3c(c(Cl)ccc32)-c2c1nn(C)c2C (single isomer, unassigned) | nM | 22.6 |

Ask: Look up and report measured AC50 (MOLP-8 human multiple myeloma cell line) for the following compound: Cc1c(C(=O)O)n2c3ccc(Cl)c(c13)-c1c(nn(C)c1C)C(CN1CCOCC1)OCc1cc(n(C)n1)CCc1cc(c3ccc(F)cc3c1)OCCC2 (single isomer, unassigned)
Result: 1370
